This listing pairs compounds with measured MIC.
system: Staphylococcus aureus JCM2151; assay: Test for antimicrobial activity (turbidity): growth inhibiting concentration of antibiotics; format: cell-based; details: Staphylococcus aureus, JCM2151, antimicrobial peptide (Seq. ID No. 27) 16 μg/ml
From the text: […]
Result Type: MIC (µg/mL)

INSERT INTO measurements (test_smiles, result_type, u, result_comparator, reported_measurement) VALUES
  ('CC(=O)OCC1=C(C(=O)O)N2C(=O)[C@@H](NC(=O)Cc3cccs3)[C@H]2SC1', 'MIC', 'µg/mL', '=', 1),
  ('O=C(N[C@H](CO)[C@H](O)c1ccc([N+](=O)[O-])cc1)C(Cl)Cl', 'MIC', 'µg/mL', '>', 1),
  ('CC1(C)S[C@@H]2[C@H](NC(=O)[C@H](N)c3ccccc3)C(=O)N2[C@H]1C(=O)O', 'MIC', 'µg/mL', '=', 1),
  ('CC1(C)S[C@@H]2[C@H](NC(=O)Cc3ccccc3)C(=O)N2[C@H]1C(=O)O', 'MIC', 'µg/mL', '=', 1);

###

This listing pairs compounds with measured MIC.
tested on: Staphylococcus aureus JCM2151; experiment: Test for antimicrobial activity (turbidity): growth inhibiting concentration of antibiotics; assay type: cell-based; conditions: Staphylococcus aureus, JCM2151, antimicrobial peptide (Seq. ID No. 27) 64 μg/ml
Result Type: MIC

INSERT INTO assay_data (test_smiles, result_type, reported_measurement) VALUES
  ('NC[C@H]1O[C@H](O[C@H]2[C@H](O)[C@@H](O[C@H]3O[C@H](CO)[C@@H](O)[C@H](N)[C@H]3O)[C@H](N)C[C@@H]2N)[C@H](O)[C@@H](O)[C@@H]1O', 'MIC', '1 µg/mL'),
  ('COc1cccc(OC)c1C(=O)N[C@@H]1C(=O)N2[C@@H]1SC(C)(C)[C@@H]2C(=O)O', 'MIC', '1 µg/mL'),
  ('O=C(N[C@H](CO)[C@H](O)c1ccc([N+](=O)[O-])cc1)C(Cl)Cl', 'MIC', '1 µg/mL'),
  ('CC(=O)OCC1=C(C(=O)O)N2C(=O)[C@@H](NC(=O)Cc3cccs3)[C@H]2SC1', 'MIC', '1 µg/mL'),
  ('CC[C@H]1OC(=O)[C@H](C)[C@@H](O[C@H]2C[C@@](C)(OC)[C@@H](O)[C@H](C)O2)[C@H](C)[C@@H](O[C@@H]2O[C@H](C)C[C@H](N(C)C)[C@H]2O)[C@](C)(O)C[C@@H](C)C(=O)[C@H](C)[C@@H](O)[C@]1(C)O', 'MIC', '1 µg/mL'),
  ('[H]/N=C(/N)N[C@H]1[C@H](O)[C@@H](O)[C@H](O[C@@H]2O[C@@H](C)[C@](O)(C=O)[C@H]2O[C@@H]2O[C@@H](CO)[C@H](O)[C@@H](O)[C@@H]2NC)[C@@H](N/C(N)=N\[H])[C@@H]1O', 'MIC', '1 µg/mL'),
  ('CC1(C)S[C@@H]2[C@H](NC(=O)Cc3ccccc3)C(=O)N2[C@H]1C(=O)O', 'MIC', '1 µg/mL'),
  ('CC1(C)S[C@@H]2[C@H](NC(=O)[C@H](N)c3ccccc3)C(=O)N2[C@H]1C(=O)O', 'MIC', '1 µg/mL');
